- System: 855422-203-R-J1-PDC complex spheroids, viability
- assay procedure: Anticancer human tumor 855422-203-R-J1-PDC patient-derived bladder carcinoma cell line growth inhibition [CLK]; active means viability on the fitted dose curve at most 10% of control; inactive means the rest
- study conditions: second compound 0.1 µM; first compound 10 µM
Choose one outcome from this list and give only that: label 1 = active, label 0 = inactive

Solved cases below.
CCCS(=O)(=O)Nc1ccc(F)c(C(=O)c2c[nH]c3ncc(-c4ccc(Cl)cc4)cc23)c1F + CNC(=O)c1ccc(Nc2nc(OC3CCCC3)c3c(-c4ccc5nc(C)oc5c4)c[nH]c3n2)c(OC)c1
label 1
C=CC(=O)N1CCN(c2nc(=O)n(-c3c(C)ccnc3C(C)C)c3nc(-c4c(O)cccc4F)c(F)cc23)C(C)C1 (stereo not given) + CN1CCN(c2cc(C(=O)Nc3cc4cc(-c5cnn(C)c5)ccc4cn3)ccn2)CC1
label 0
C=C(F)C(=O)N1CCN(c2nc(OCC3CCCN3C)nc3c2CCN(c2cccc4cccc(Cl)c24)C3)CC1CC#N (stereo not given) + CN1CCN(c2cc(C(=O)Nc3cc4cc(-c5cnn(C)c5)ccc4cn3)ccn2)CC1
label 1
COC1C=CCC(C)C(C)S(=O)(=O)NC(=O)c2ccc3c(c2)N(CC2CCC21)CC1(CCCc2cc(Cl)ccc21)CO3 (stereo not given) + CN1CCN(c2cc(C(=O)Nc3cc4cc(-c5cnn(C)c5)ccc4cn3)ccn2)CC1
label 1

In the following, a different compound is considered.
Input: How was COc1ccc([C@@H](O)c2cc(-c3ncnc4cc(N5CCOCC5)ccc34)c(F)cc2Cl)nn1 + CNC(=O)c1ccc(Nc2nc(OC3CCCC3)c3c(-c4ccc5nc(C)oc5c4)c[nH]c3n2)c(OC)c1 classified in this test?
Output: label 0

----------
- Test system: 855422-203-R-J1-PDC complex spheroids, viability
- assay procedure: Anticancer human tumor 855422-203-R-J1-PDC cell line growth inhibition [CLK];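 further: spheroids exposed to drugs for seven days before readout; 100% = DMSO vehicle control wells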
- study conditions: second compound 0.1 µM; first compound 10 µM; active compounds read low
value type: viability, T/C (%)
Form entry: value (%) — number only.

Input: Entry Nc1ccccc1NC(=O)c1ccc(CNC(=O)OCc2cccnc2)cc1 + CNC(=O)c1ccc(Nc2nc(OC3CCCC3)c3c(-c4ccc5nc(C)oc5c4)c[nH]c3n2)c(OC)c1 needs its viability, T/C filled in; supply it.
Output: 1.14

Input: Using known records, supply viability, T/C for C#Cc1c(F)ccc2cc(O)cc(-c3ncc4c(N5CC6CCC(C5)N6)nc(OCC56CCCN5CC(F)C6)nc4c3F)c12 (stereo not drawn) + CN1CCN(c2cc(C(=O)Nc3cc4cc(-c5cnn(C)c5)ccc4cn3)ccn2)CC1
Output: 81.9

Input: For the compound Nc1ccccc1NC(=O)c1ccc(CNC(=O)OCc2cccnc2)cc1 + CN1CCN(c2cc(C(=O)Nc3cc4cc(-c5cnn(C)c5)ccc4cn3)ccn2)CC1 , give its measured viability, T/C value.
Output: 0.05

----------
- System: 855422-203-R-J1-PDC complex spheroids, viability
- assay procedure: Anticancer human tumor 855422-203-R-J1-PDC cell line growth inhibition [CLK];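 further: spheroids exposed to drugs for seven days before readout; 100% = DMSO vehicle control wells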
- study conditions: second compound 0.316 µM; first compound 3.16 µM; active compounds read low
value type: viability, T/C (%)
Your answer should be a plain number; it is taken to be in %.

COC1C=CCC(C)C(C)S(=O)(=O)NC(=O)c2ccc3c(c2)N(CC2CCC21)CC1(CCCc2cc(Cl)ccc21)CO3 (stereo not drawn) + CNC(=O)c1ccc(Nc2nc(OC3CCCC3)c3c(-c4ccc5nc(C)oc5c4)c[nH]c3n2)c(OC)c1
34.1
COC1C=CCC(C)C(C)S(=O)(=O)NC(=O)c2ccc3c(c2)N(CC2CCC21)CC1(CCCc2cc(Cl)ccc21)CO3 (stereo not drawn) + CN1CCN(c2cc(C(=O)Nc3cc4cc(-c5cnn(C)c5)ccc4cn3)ccn2)CC1
9.01

Next:
Input: Retrieve viability, T/C measured for C#Cc1c(F)ccc2cc(O)cc(-c3ncc4c(N5CC6CCC(C5)N6)nc(OCC56CCCN5CC(F)C6)nc4c3F)c12 (stereo not drawn) + CNC(=O)c1ccc(Nc2nc(OC3CCCC3)c3c(-c4ccc5nc(C)oc5c4)c[nH]c3n2)c(OC)c1 and print it.
Output: 24.3
